Target: interaction between VCAM-1 and VLA-4 (Homo sapiens, UniProt P05556+P13612)
Construct: supplied in their natural form as surface molecules on human U937 cells; The VCAM-1(1-3)-IgG partner was made by transient transfection of COS cells (ATCC CRL1651) and used as culture supernatant
Sequence (P13612 34-1032): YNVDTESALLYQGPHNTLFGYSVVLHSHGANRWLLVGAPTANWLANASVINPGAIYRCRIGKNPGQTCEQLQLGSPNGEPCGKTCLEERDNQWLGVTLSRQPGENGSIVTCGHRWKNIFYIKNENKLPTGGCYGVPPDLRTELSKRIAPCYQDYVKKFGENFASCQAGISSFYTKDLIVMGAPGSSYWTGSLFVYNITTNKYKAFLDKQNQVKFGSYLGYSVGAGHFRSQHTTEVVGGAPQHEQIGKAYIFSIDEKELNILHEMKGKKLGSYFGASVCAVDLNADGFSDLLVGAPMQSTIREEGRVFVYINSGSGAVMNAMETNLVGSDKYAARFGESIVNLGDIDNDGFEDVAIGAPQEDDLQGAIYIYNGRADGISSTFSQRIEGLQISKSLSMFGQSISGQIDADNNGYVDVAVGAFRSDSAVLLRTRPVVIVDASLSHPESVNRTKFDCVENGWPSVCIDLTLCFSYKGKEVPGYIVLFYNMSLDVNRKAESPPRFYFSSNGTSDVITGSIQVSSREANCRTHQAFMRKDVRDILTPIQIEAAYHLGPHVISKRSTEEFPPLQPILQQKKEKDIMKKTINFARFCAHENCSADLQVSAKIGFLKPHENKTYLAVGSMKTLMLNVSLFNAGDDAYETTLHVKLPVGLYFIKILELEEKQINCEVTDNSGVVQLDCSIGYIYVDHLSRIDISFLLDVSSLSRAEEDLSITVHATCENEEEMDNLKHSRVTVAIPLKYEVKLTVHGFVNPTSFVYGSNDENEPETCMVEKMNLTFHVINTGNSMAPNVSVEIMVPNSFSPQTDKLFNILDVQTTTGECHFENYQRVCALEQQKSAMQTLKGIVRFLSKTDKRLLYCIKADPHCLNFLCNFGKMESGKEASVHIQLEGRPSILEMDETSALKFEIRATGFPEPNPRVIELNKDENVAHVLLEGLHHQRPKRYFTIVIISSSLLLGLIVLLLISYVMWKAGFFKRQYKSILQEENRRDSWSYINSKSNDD
Sequence (P05556 21-798): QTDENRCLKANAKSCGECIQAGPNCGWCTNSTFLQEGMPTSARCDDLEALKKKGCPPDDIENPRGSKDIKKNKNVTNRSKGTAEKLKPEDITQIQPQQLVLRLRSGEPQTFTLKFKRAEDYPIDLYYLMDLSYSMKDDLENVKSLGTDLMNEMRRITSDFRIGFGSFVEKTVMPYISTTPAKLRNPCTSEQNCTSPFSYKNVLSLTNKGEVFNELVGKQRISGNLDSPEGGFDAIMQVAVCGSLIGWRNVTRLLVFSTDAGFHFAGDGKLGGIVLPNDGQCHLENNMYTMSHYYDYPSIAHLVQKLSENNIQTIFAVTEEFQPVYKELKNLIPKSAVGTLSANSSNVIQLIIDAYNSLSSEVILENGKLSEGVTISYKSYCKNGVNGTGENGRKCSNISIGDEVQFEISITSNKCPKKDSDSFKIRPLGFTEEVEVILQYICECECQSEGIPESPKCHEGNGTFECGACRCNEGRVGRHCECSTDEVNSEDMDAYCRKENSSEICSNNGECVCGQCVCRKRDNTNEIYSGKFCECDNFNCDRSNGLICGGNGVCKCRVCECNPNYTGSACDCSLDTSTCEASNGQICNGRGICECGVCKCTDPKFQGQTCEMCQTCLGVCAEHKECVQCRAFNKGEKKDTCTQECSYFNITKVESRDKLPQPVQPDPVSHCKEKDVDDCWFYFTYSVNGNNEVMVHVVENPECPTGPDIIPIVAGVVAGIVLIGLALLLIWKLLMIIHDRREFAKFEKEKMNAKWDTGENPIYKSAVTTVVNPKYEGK
Test: U937/VCAM-1 cell adhesion test (adhesion of U937 cells to hVCAM-1(1-3)-IgG)
Conditions: human U937 cells adhering to hVCAM-1(1-3)-IgG; concentration giving 50% inhibition of adhesion
assay endpoint: IC50 (µM)

Sample answers from the record:
compound | IC50 / µM
CC1(c2ccc(O)cc2)C(=O)N(CC(=O)N[C@@H](CC(=O)O)C(=O)N[C@H](C(=O)O)c2ccccc2)C(=O)N1Cc1ccccc1 (some centres unmarked) | 9.5
C[C@]1(c2ccc(CO)cc2)C(=O)N(CC(=O)N[C@@H](CC(=O)O)C(=O)N[C@H](C(=O)O)c2ccccc2)C(=O)N1Cc1ccccc1 | 4.5

(A) C[C@]1(c2ccc(CO)cc2)C(=O)N(CC(=O)NC[C@H](NC(=O)OCC23CC4CC(CC(C4)C2)C3)C(=O)O)C(=O)N1Cc1ccccc1
(B) CC1(c2ccccc2)C(=O)N(CC(=O)N[C@@H](CC(=O)O)C(=O)N[C@H](C(=O)O)c2ccccc2)C(=O)N1Cc1ccccc1 (some centres unmarked)
(C) CC(C)C(C(=O)NC[C@H](NC(=O)OCC12CC3CC(CC(C3)C1)C2)C(=O)O)N1C(=O)N(Cc2ccccc2)C(C)(c2ccccc2)C1=O (some centres unmarked)
# ascending order, key=IC50 Response format: the labels, sorted as the prompt asks.
A, B, C
(A: 4 µM, B: 8 µM, C: 45 µM)
